IC50 values by entry
# System Tested: SERT (Rattus norvegicus, UniProt P31652)
# Sequence (P31652 whole entry): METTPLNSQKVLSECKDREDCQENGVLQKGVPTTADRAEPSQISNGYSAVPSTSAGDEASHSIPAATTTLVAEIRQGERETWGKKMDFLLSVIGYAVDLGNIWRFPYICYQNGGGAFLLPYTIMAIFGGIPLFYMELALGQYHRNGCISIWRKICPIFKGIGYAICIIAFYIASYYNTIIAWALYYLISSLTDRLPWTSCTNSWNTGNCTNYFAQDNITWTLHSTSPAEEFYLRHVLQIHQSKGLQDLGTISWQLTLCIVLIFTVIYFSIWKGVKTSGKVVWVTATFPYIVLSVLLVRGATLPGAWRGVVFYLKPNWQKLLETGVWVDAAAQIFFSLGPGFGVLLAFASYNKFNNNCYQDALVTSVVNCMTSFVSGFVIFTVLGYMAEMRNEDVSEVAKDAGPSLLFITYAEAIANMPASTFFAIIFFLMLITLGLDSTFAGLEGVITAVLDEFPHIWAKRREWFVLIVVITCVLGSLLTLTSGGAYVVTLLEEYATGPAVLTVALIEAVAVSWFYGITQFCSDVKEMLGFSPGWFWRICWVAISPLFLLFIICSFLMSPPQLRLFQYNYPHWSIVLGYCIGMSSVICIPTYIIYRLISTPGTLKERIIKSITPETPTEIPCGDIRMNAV
# Test Method Notes: [3H]5-HT uptake inhibition assay
# Format: biochemical

Compound	IC50 (µM)
Cc1cc(NC(=O)Nc2ccc3c(ccn3C)c2)sn1 [SB204741]	38
Brc1ccc(CN2CCC(CCOC(c3ccccc3)c3ccccc3)CC2)cc1 [EG-1-149]	1.76

Where these numbers come from: paper PMC2941209
